target: SARS-CoV-2 nsp3-mac1 (Severe acute respiratory syndrome coronavirus 2, UniProt P0DTD1); test: biochemical; type: biochemical; conditions: SARS-CoV-2 nsp3 macrodomain TR-FRET single point; concentration 99.5 uM; n=2
Measured perc_inhibition_mean values are reported for all entries that follow.
Write the answer as a number in %, unit excluded.

{"Mol Smiles": "CC(C)n1nccc1NC(=O)c1ccc(NC(=O)Nc2ccccc2)cc1", "System": "SARS-CoV-2 nsp3-mac1 (Severe acute respiratory syndrome coronavirus 2, UniProt P0DTD1)", "perc_inhibition_mean (%)": -0.924}
{"Mol Smiles": "Nc1ncc(C(=O)N(CCC(=O)N2CCNCC2)Cc2cccc(Cl)c2)cn1", "System": "SARS-CoV-2 nsp3-mac1 (Severe acute respiratory syndrome coronavirus 2, UniProt P0DTD1)", "perc_inhibition_mean (%)": -1.726}
{"Mol Smiles": "O=C(Nc1ccccc1)Nc1ccc(C(=O)N2CCn3nccc3C2)cc1", "System": "SARS-CoV-2 nsp3-mac1 (Severe acute respiratory syndrome coronavirus 2, UniProt P0DTD1)", "perc_inhibition_mean (%)": 2.299}
{"Mol Smiles": "O=C(O)c1sccc1C(=O)N1CCC(c2ccn3ncc(C(=O)N4CCCCC4)c3c2)CC1", "System": "SARS-CoV-2 nsp3-mac1 (Severe acute respiratory syndrome coronavirus 2, UniProt P0DTD1)", "perc_inhibition_mean (%)": 71.528}

In the following, a different molecule is considered.
I'm curious: which perc_inhibition_mean was measured for FC(F)(F)c1nnc2n1CCN(c1ncnc3[nH]ccc13)C2 tested on SARS-CoV-2 nsp3-mac1 (Severe acute respiratory syndrome coronavirus 2, UniProt P0DTD1)?
-1.005
